Recorded SPOT signal as a fraction of Bim BH3's signal on the same receptor and array values for a group of binders are listed next.
# SYSTEM TESTED: T1, Mcl-1, Q07820
# T1 chain: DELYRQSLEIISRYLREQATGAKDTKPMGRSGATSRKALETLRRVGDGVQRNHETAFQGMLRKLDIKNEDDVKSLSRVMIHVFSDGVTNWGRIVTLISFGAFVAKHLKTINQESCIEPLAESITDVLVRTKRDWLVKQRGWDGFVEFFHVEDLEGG
# PROCEDURE SUMMARY: peptide SPOT array, c-Myc-tagged receptor at 1 uM or 100 nM, anti-c-Myc-Cy3
OBSERVED PROPERTY: SPOT signal as a fraction of Bim BH3's signal on the same receptor and array

>>> observed("QLRLSDAGQYLCQAGDDSNSNKKNAD [PIGR]")
0.02
>>> observed("AVLCVECGYKYRFFLEDAEIAARELN [MSH3]")
0.02
>>> observed("EAGNMAAVGRLQAVSRRLFAELENER [KIAA1751]")
0.02
